experiment summary: qHTS Assay for Modulators of Lamin A Splicing; note: % is set by controls: 0 for no effect and ±100 for the full control effect
conditions used: HeLa LMNA splicing GFP/RFP minigene ratio, 48 h; series mostly up to 46 µM
Hit rate of the full screen: of about 200,000 compounds, about 25 (0.01%) were called active. Roughly 23% stayed inconclusive and do not appear here. The full list was thinned out, with actives kept by preference.
value kind: ratio change, negative = inhibition

These solved cases illustrate the format of a correct answer.
compound	endpoint result
COc1ccc(S(=O)(=O)NCC2CCCN(C(=O)c3occc3C)C2)cc1 (stereo not drawn)	inactive
COc1cc2c(C(=O)N3CCN(C)CC3)c(CSc3ccccc3)n(C)c2cc1Br	inactive
O=C(CN1CCSCC1)N/N=C/c1ccc(Cl)cc1	-10.4% [at 9.22 µM] (inactive)
CC(C)CCNC(=O)CSc1nc2ccccc2nc1Cc1ccc(Cl)cc1	inactive
CC1CCCCN1CCCNC(=O)Cn1ncc2c([nH]c3ccccc32)c1=O (stereo not drawn)	inactive
C=CCn1c(CNC(=O)c2ccco2)nnc1SCC(=O)c1ccc(OC)cc1	inactive
COC(=O)CCC(=O)N1CCCC(CO)(Cc2ccccc2)C1 (stereo not drawn)	inactive
O=C(CNC(=O)c1cc(=O)[nH]c2ccccc12)Nc1ccc(F)c(F)c1	3.5% [at 9.22 µM] (inactive)
O=C(Nc1ccc2nc(SCCOc3ccccc3Cl)sc2c1)c1ccco1	inactive
Cc1ccc(S(=O)(=O)CC(=O)Nc2c(C)n(C)n(-c3ccccc3)c2=O)cc1	inactive

**Query** Given the compound `COc1ccc(-c2cn3cccnc3n2)cc1` , what is its reported ratio change, negative = inhibition?
**Result** inactive

**Query** Moving on to the next compound: `CCOCCc1nn2c(=O)cc(COC(=O)CNC(=O)c3ccc(C(C)(C)C)cc3)nc2s1`
**Result** inactive

**Query** Moving on to the next compound: `CN(C)S(=O)(=O)c1ccc(NC(=O)COC(=O)Cn2[nH]c(=O)c3ccccc3c2=O)cc1`
**Result** inactive

**Query** Moving on to the next compound: `CCOc1ccccc1N1CCN(C(=O)COc2ccc3c(C)cc(=O)oc3c2)CC1`
**Result** inactive

**Query** Moving on to the next compound: Cc1nccn1CCCNC(=O)CC1C(=O)NCCN1Cc1ccc(Cl)c(F)c1 (stereo not drawn)
**Result** inactive

###

experiment summary: qHTS Assay for Modulators of Lamin A Splicing; note: % is set by controls: 0 for no effect and ±100 for the full control effect
conditions used: HeLa LMNA splicing GFP/RFP minigene ratio, 48 h; series mostly up to 46 µM
Among all 200,000 compounds or so, about 25 (0.01%) were called active. Another 23% or so got no clear call; they are omitted. The sample as a whole holds a higher share of actives than the screen did.
value kind: ratio change, negative = inhibition

These solved cases illustrate the format of a correct answer.
compound	value kind	endpoint result
CCOC(=O)c1cnc2[nH]c3ccccc3n2c1=O	ratio change, negative = inhibition	inactive
COc1cccc(CNC(=O)C2CCN(S(=O)(=O)c3ccc4c(ccn4C)c3)CC2)c1	ratio change, negative = inhibition	inactive
COc1ccc(SCc2cc(=O)c3ccc(C)c(C)c3[nH]2)cc1	ratio change, negative = inhibition	inactive
Cc1ccccc1N1C(=O)C(Oc2ccc(Cl)cc2)C1CNCC1CCCO1 (stereo unspecified)	ratio change, negative = inhibition	inactive
CCOC(=O)c1sc(=NC(=O)/C=C/c2cccs2)n(C)c1C	ratio change, negative = inhibition	2.93% [at 9.22 µM] (inactive)
Cc1ccccc1C(=O)Nc1ccc(N2CCCCCC2)cc1	ratio change, negative = inhibition	inactive
Fc1ccccc1N=C1Nc2cccc3cccc1c23	ratio change, negative = inhibition	inactive
COc1cc(/C=C/C(=O)OCC(=O)N2CCOCC2)ccc1OCC#N	ratio change, negative = inhibition	inactive

**Query** Given the compound Cc1ccc(C(c2nnnn2C(C)(C)C)N2CCc3ccccc3C2)cc1 (stereo unspecified) , what is its reported ratio change, negative = inhibition?
**Result** inactive

**Query** Moving on to the next compound: `Cc1ccccc1OCCSc1nc2ccc(NC(=O)c3ccco3)cc2s1`
**Result** inactive

**Query** Moving on to the next compound: `CC(=O)c1cccc(-n2nnnc2SCC(=O)NNC(=O)C2CCCCC2)c1`
**Result** 7.45% [at 9.22 µM] (inactive)

###

experiment summary: qHTS Assay for Modulators of Lamin A Splicing; note: % is set by controls: 0 for no effect and ±100 for the full control effect
conditions used: HeLa LMNA splicing GFP/RFP minigene ratio, 48 h; series mostly up to 46 µM
In all, about 200,000 compounds went through this assay and about 25 (0.01%) were called active. Inconclusive results (about 23%) are left out. The list comes from a sample in which actives are over-represented; it also holds close analogues and randomly drawn compounds.
value kind: ratio change, negative = inhibition

These solved cases illustrate the format of a correct answer.
smiles representation	ratio change, negative = inhibition
Cc1cccc(NC(=O)c2ccc3nc(C(C)C)oc3c2)c1C	inactive
O=C(CCC(=O)N1CCCC1)Nc1ccc([N+](=O)[O-])cc1	inactive
Cc1nc(N2CCCCC2)sc1C=O	inactive
COCCN(C(=O)c1ccccc1F)c1c(N)n(Cc2ccccc2)c(=O)[nH]c1=O	inactive

**Query** Given the molecule `O=C(Nc1nnc(-c2ccco2)o1)c1ccc(S(=O)(=O)N2CCOCC2)cc1` , what is its reported ratio change, negative = inhibition?
**Result** 16.1% [at 9.22 µM] (inactive)

**Query** Moving on to the next molecule: `Cc1cc(NC(=O)CSc2nc3c(cc2C#N)CCCCC3)no1`
**Result** inactive

**Query** Moving on to the next molecule: `O=C(CCSCc1cccc(F)c1)NCc1ccccc1`
**Result** inactive

**Query** Moving on to the next molecule: `Cc1cccc(C)c1NC(=S)N(Cc1cccnc1)Cc1ccccc1Cl`
**Result** 17.6% [at 9.22 µM] (inactive)
